Hello, the source for this data is a melting point compilation (Tetko et al.; mined from patent text by program, amines drawn as free bases though some values may be those of a salt), in case you need it.

measure: melting point

• Cc1nc(NC(=O)c2ccc(S(C)(=O)=O)cc2)sc1C(=O)NCc1ccccc1 = 262 to 265 °C
• CC(C)N1C(=S)NC(c2ccccc2)c2cc3c(cc21)OCO3 (stereo unspecified) = 214 to 218 °C
• CCN(CC)Cc1ccc2c(c1)ncn2-c1cccc(-c2nccs2)c1 = 152 °C
• CCOC(=O)c1ccc(/C=C(\C)c2ccc3c(c2)C(C)(C)CCC3(C)C)cc1 = 90 to 91 °C
• NC(=O)c1ccc(NC2CCCN(Cc3ccccc3)C2)cc1 (stereo unspecified) = 158 to 160 °C
• O=C(Nc1cccc(S(=O)(=O)N2CCCC2CO)c1)c1cnn2c(C(F)(F)F)cc(-c3ccc(Cl)cc3)nc12 (stereo unspecified) = 227 to 229 °C
• CC(=O)NCC1=C(N2CCCC2=O)c2cc([N+](=O)[O-])ccc2OC1(C)C = 205 °C
• Cc1nc(-c2cc3[nH]c(=O)c(=O)[nH]c3cc2[N+](=O)[O-])c[nH]1 = > 300 °C
• OCCc1nccn1CCCc1ccc(OCc2ccccc2)cc1 = 80 to 82 °C
• Cc1c(NC(=O)CC(C)(C)C)cc2c(c1C)OC(C)(C)C2c1ccccc1OC(F)(F)F (stereo unspecified) = 155 to 156 °C
• O=C(NOCCO)c1ccc(F)c(F)c1Nc1ccccc1F = 130 °C
• CNC(=O)N(O)C(C)C#Cc1ccc(Cl)cc1 (stereo unspecified) = 151 to 153 °C
• CCCCCCCCC=CCCCCCCCCCCCCNC(=O)C=CC(=O)O = 55 °C
• COC1C(O)C(CO)OC1n1ccc(N)nc1=O (stereo unspecified) = 252 to 254 °C
• O=C(N[C@H]1CCCNC1=O)OCc1ccccc1 = 100 to 102 °C
• O=C(NC1=NN(c2ccc(C(=O)C(F)(F)F)cc2)CC1)C(F)(F)F = 228 to 230 °C
• OCc1cc2ccccc2c(-c2ccnc(Br)c2)c1CO = 108 to 109 °C
• O=[N+]([O-])c1ccc(Oc2ccc(Oc3ccc([N+](=O)[O-])c(O)c3)cc2)cc1O = 242 to 245 °C
• O=Cc1cc(-c2ccccc2)c(=O)n2c1-c1sccc1CC2 = 213 to 215 °C
• CSc1ccc2cc[nH]c2c1 = 91 to 92 °C
• O=C(NC1CCCCCCC1)NS(=O)(=O)c1ccc(CCNC(=O)N2CCCCC2=O)cc1 = 170 to 172 °C

====

Listing: melting point of selected compounds
measure: melting point (°C)

- O=S(=O)(O)OC[C@H]1Cc2ccccc2CN1: 318
- OC1CSC(Oc2cc(-c3ccnc(F)c3)ccc2Cl)C(O)C1O (stereo not given): 162

====

measure: melting point

- O=C(O)C1(c2ccc(C#Cc3ccccc3)cc2)CC1: 214 to 218 °C
- ICCc1ccc2c(c1)OCO2: 36 to 38 °C
- CCOC(=O)N1Cc2c(n(-c3ccc(F)cc3)c3ccc(F)cc23)C1: 143 to 145 °C
- COC1=CC(Cl)(OC)NC(C(O)CC(=O)Nc2ccccc2)=N1 (stereo not drawn): 121 to 123 °C
- O=C(O)c1cc(=O)c2cc(O)c(=O)ccc2[nH]1: 258 to 260 °C
- O=C1NC(=O)C(c2ccc3c(c2)CCCC3)S1 (stereo not drawn): 157 to 158 °C
- CN1CCC(=C2c3ccccc3CCn3ncnc32)CC1: 127 °C
- Cc1ccccc1C=C1CCc2c1nc1ccc(C(=O)O)cn1c2=O: 300 to 302 °C
- CC1(S(=O)(=O)N2C[C@@H](Cl)C[C@@H]2CCl)C=CC=CC1 (stereo partly drawn): 103 to 105 °C
- C1=C(c2ccccc2)CCN(Cc2cncc(-c3ccccc3)c2)C1: 80 to 82 °C
- CCCSc1nc(N)nc2c1ncn2C1C=CC(CO)C1 (stereo not drawn): 128 to 130 °C
- Fc1ccc(N2CCN(Cc3n[nH]c4ccccc34)CC2)cc1: 191 to 192 °C
- O=C(O)c1ccccc1Oc1ccc(Cl)cc1: 114 to 115 °C
- COC(=O)c1cccc(CC(C)NCC(O)c2ccc(O)c(CO)c2)c1 (stereo not drawn): 60 to 70 °C
- COc1ccc(S(=O)(=O)Nc2cccnc2Nc2ccc(O)cc2)cc1: 178 to 179 °C
- CC(C)CCOc1ccc([N+](=O)[O-])cc1OCCC(C)C: 44 to 47 °C
- OCc1ccc2ccccc2c1Br: 101 to 102 °C
- N#CSc1ccc(O)cc1Br: 91 to 92 °C
- COC(=O)C=C1C(=O)NC(=O)N1C: 100 °C
- CCCCCCCCCCCCC(C)COc1ccc(C(C)=O)o1 (stereo not drawn): 45 to 47 °C
- CC(C)/C=C(\C[C@H](N)C(=O)O)C(=O)O: > 200 °C
- CCCCN(Cc1ccc(-c2ccccc2-c2nnn[nH]2)cc1)c1ncc(C(=O)OCC)s1: 65 to 70 °C
- OCC1OC(n2cnc3c(NC(c4ccccc4)c4ccccc4)ncnc32)C(O)C1O (stereo not drawn): 89 to 96 °C

====

measure: melting point

* CCCOc1ccc(CN2CCOCC2)cc1-c1nc2c(CCC)nn(C)c2c(=O)[nH]1 | 106 to 107 °C
* Fc1cc(Br)ccc1OCc1ccccc1 | 64.4 to 66.3 °C
* CCCCC(CC)COC(=O)C(C#N)=C1C=C(C)N(CCCC)C(C)=C1 (stereo not given) | 69 to 70 °C
* CCN(CC)c1ccc2cc(-c3nc(-c4ccccc4)cs3)c(=O)oc2c1 | 127 to 130 °C
* O=C(Nc1cccc(S(=O)(=O)NCc2ccccn2)c1)c1cnn2c(C(F)F)cc(-c3ccc(C(F)(F)F)cc3)nc12 | 208 °C
* Cc1nc2c(cc1C#CCO)c(=O)c(C(=O)NCc1ccc(Cl)cc1)cn2C | 217 to 218 °C
* Cc1cc(-c2nnnn2C2CC2)ccc1N | 139 to 140 °C
* CCOC(=O)c1c(C)nc(-c2ccccc2)nc1-c1cc([N+](=O)[O-])ccc1SC | 125 to 126 °C
* C=CCC1(CC=C)c2cc(N(c3ccccc3)c3ccccc3)ccc2-c2ccc(N(c3ccccc3)c3ccccc3)cc21 | 179 to 183 °C
* CC(=O)O[C@H]1C[C@@H](n2cnc3c(=O)[nH]cnc32)[C@H](O)[C@@H]1O (racemic) | 240 to 242 °C
* NC(=O)c1cc2cccc(N(CC3CC3)S(=O)(=O)c3cccs3)c2[nH]1 | 229 to 231 °C
* CCOC(=O)C=C(C)Nc1ccc(OC)c(OC)c1 | 57 to 58 °C
* CCOC(=O)CN1CC(=O)N(C)c2ccc(N)cc2C1=O | 118 to 119 °C
* S=C1NC(c2ccc(Cl)cc2)c2ccccc2C1CCN1CCOCC1 (stereo not given) | 228 to 231 °C
* CC(=O)Nc1ccc(C(=O)Oc2ccccc2)c(OC(C)=O)c1 | 142 to 143 °C
* O=C1CCSC(c2ccccc2Cl)c2cc([N+](=O)[O-])ccc2N1 (stereo not given) | 285 °C
* CC(C)C[C@@H](C(=O)N1CCN(C(c2ccc(F)cc2)c2ccc(F)cc2)CC1)N1CCOCC1 | 55 to 63 °C
* COc1ccc(C(=O)c2ccc3cc(OC)ccc3c2)c(ON=C(C)C)c1 | 117 to 118 °C
* CCOC(=O)C1=C(C)NC(C)=C(C(=O)OC)C1c1cccc(NC(C)=O)c1 (stereo not given) | 197 to 199 °C
* CCCCc1sc2ccccc2c1C(=O)c1ccc(NS(=O)(=O)c2ccc(C)cc2)cc1 | 128 °C
* COC(=O)c1cccc(-n2cnc3cc(-c4ccno4)ccc32)c1 | 190 to 191 °C
* CN1C(=O)C(CCCN2CCN(c3ccc(F)cc3)CC2)Oc2cc3c(cc21)CCCC3 (stereo not given) | 98 to 98.5 °C
* CCC1c2ccc(C#N)n2-c2cc(F)c(F)cc2N1S(=O)(=O)c1ccc(OC)c(C)c1 (stereo not given) | 153 to 155 °C
* Cc1nsc(Br)c1S(N)(=O)=O | 148 to 150 °C
* COc1cc2ncnc(Sc3cccc(O)c3)c2cc1OC | 221 to 230 °C
* Cc1cc(N)cc(C)c1O | 135 to 137 °C
* COc1ccc2c(=O)c3c(Cl)ccc([N+](=O)[O-])c3oc2c1 | 211 to 213 °C
* CC(C)n1nc(-c2c(-c3ccccc3)nn3ccc(OCCN4CCCCC4)cc23)ccc1=O | 144 °C
* CS(=O)(=O)Nc1ccc(Sc2cnc(N)s2)cc1 | 185 to 187 °C
* C=C1CN(Cc2ccc(C(=O)Nc3ccccc3N)cc2)C(CC(=O)O)c2ccccc21 (stereo not given) | > 230 °C
* CCCCN(Cc1ccc(-c2ccccc2-c2nnn[nH]2)cc1)c1nc(C)ncc1C(=O)OCC | 164 to 166 °C
* CCCCCCCCCCCCCCOCC(COCCCCCCCCCCCCCC)(CC(=O)O)CC(=O)O | 84 to 86 °C
* C=C1CCC2C3CCC4CC(OCOC)CCC4(C)C3CCC12C (stereo not given) | 73 to 75 °C
* O=[N+]([O-])c1cccc2c(Br)cc3nc(O)c(O)nc3c12 | > 300 °C
* CC(C)(C)OC(=O)N1CCc2cc([N+](=O)[O-])ccc2C1 | 138 to 141 °C
* Cc1nnc2n1-c1ccccc1C(c1ccc(Cl)cc1)=NC2NN(C(=O)NN)C(=O)c1ccccc1 (stereo not given) | 243 to 245 °C
* COC(=O)Cc1c(O)c(C)nn1C | 119 to 120 °C
* CCOC(=O)c1cc(=O)c2cccc(N3CCN(C)CC3)c2o1 | 124 to 125 °C
* COC(=O)c1ccc2c(c1)C(SCCCl)c1ccccc1CO2 (stereo not given) | 100 to 102 °C
* NS(=O)(=O)c1ccc(C2CCN(c3ccncc3)CC2)cc1 | 295 °C
